The reported measurements were obtained from ChEMBL document CHEMBL3992510.

# Method: Drug level in mouse plasma at 50 mg/kg, po administered as single dose via gavage measured at 24 hrs post dose by liquid chromatography/tandem mass spectrometric analysis
# Format: ADME, organism-based
Reported Endpoint: concentration at 24 h (µM)
Quick note: give the figure in µM, leave out the unit.

Ask: Complete the entry with concentration at 24 h for O=C(Nc1ccc2sc(-c3ccc(F)c(F)c3)nc2c1)N1CC[C@H](F)C1
Result: 0.01

---

Quick reference for t1/2 among some molecules
# System: Liver
# Method: Half life in mouse liver microsomes at 1.5 uM in presence of NADPH by liquid chromatography/tandem mass spectrometric analysis
# Type: ADME, microsome
Report only the number, with the unit min understood.

[
  {
    "Sample Smiles": "O=C(Nc1ccc2sc(-c3ccc(F)c(F)c3)nc2c1)N1CCCC1",
    "t1/2 / min": 14
  },
  {
    "Sample Smiles": "O=C(Nc1ccc2sc(-c3cccc(F)c3)nc2c1)N1CCCC1",
    "t1/2 / min": 12
  },
  {
    "Sample Smiles": "O=C(Nc1ccc2sc(-c3ccccc3)nc2c1)N1CCCC1",
    "t1/2 / min": 18
  },
  {
    "Sample Smiles": "C[C@]12CC[C@H]3[C@@H](CCC4=CC(=O)CC[C@@]43C)[C@@H]1CC[C@@H]2O",
    "t1/2 / min": 5.26
  }
]

Now look at this entry.
Ask: Tell me t1/2 reported for O=C(Nc1ccc2sc(-c3ccccc3)nc2c1)c1ccccc1
Result: 50

---

# Method: Drug level in mouse plasma at 50 mg/kg, po administered as single dose via gavage measured at 1 hr post dose by liquid chromatography/tandem mass spectrometric analysis
# Assay type: ADME, organism-based
Reported Endpoint: concentration at 1 h (µM)
Entry rule: numbers only, all in µM.

Ask: Supply recorded concentration at 1 h for O=C(Nc1ccc2sc(-c3ccc(F)c(F)c3)nc2c1)N1CC[C@H](F)C1 here.
Result: 27.1

---

# Method: Drug level in Swiss-Webster mouse plasma infected with Trypanosoma brucei rhodesiense STIB900 at 50 mg/kg, po bid administered via gavage for 4 days starting from 2 days post infection measured at 6 hrs post last dose
# Assay type: ADME, organism-based
Reported Endpoint: concentration at 6 h (µM)
Dear colleague, please return just the value in µM, with no unit written.

Ask: Consider the molecule O=C(Nc1ccc2sc(-c3ccc(F)c(F)c3)nc2c1)N1CC[C@H](F)C1 . State its measured concentration at 6 h.
Result: 15

---

# System: Trypanosoma brucei brucei
# Method: Antitrypanosomal activity against Trypanosoma brucei brucei BF427 assessed as growth inhibition measured after 48 hrs by Alamar blue assay
# Assay type: functional
# Condition Details: BF427, 48 h
Listing: EC90 of selected compounds

[
  {
    "Compound": "O=C(Nc1ccc2sc(-c3ccc(F)c(F)c3)nc2c1)N1CCC(F)(F)CC1",
    "EC90": "4170 nM"
  }
]

Now consider a different compound.
Ask: # lookup: Trypanosoma brucei brucei EC90, key = O=C(Nc1ccc2oc(-c3ccccc3)nc2c1)N1CCCCC1
Result: 9300 nM

---

# System: Liver
# Method: Half life in human liver microsomes at 1.5 uM in presence of NADPH by liquid chromatography/tandem mass spectrometric analysis
# Format: ADME, microsome
Each item that follows carries a reported t1/2.
Value expressed in min; do not type the unit.

[
  {
    "Sample Smiles": "O=C(Nc1ccc2sc(-c3cccc(F)c3)nc2c1)N1CCCC1",
    "Reported Measurement": 37
  }
]

Ask: Read the entry O=C(Nc1ccc2oc(-c3ccccc3)nc2c1)c1ccccc1 and write its reported t1/2.
Result: 60

Ask: In one line, give reported t1/2 of the entry Cl.S=C(NCCc1nc(-c2ccccc2)cs1)N1CCCCC1 .
Result: 8.2

---

# Method: Drug level in mouse brain at 50 mg/kg, po administered as single dose via gavage measured at 8 hrs post dose by liquid chromatography/tandem mass spectrometric analysis
# Format: ADME, organism-based
# Condition Details: read-out: Drug uptake
Reported Endpoint: concentration at 8 h
Please state the number and follow it with the unit.

Ask: Query concentration at 8 h for O=C(Nc1ccc2sc(-c3ccc(F)c(F)c3)nc2c1)N1CC[C@H](F)C1
Result: 48.1 µM

---

# Tested on: Liver
# Method: Half life in mouse liver microsomes at 1.5 uM in presence of NADPH by liquid chromatography/tandem mass spectrometric analysis
# Type: ADME, microsome
Reported Endpoint: t1/2 (min)
Note: unit min is implicit; provide only the numeric part.

Here are 3 compounds together with their reported answers.
[
  {
    "Compound": "O=C(Nc1ccc2oc(-c3ccccc3)nc2c1)c1ccccc1",
    "Unit Of Measure": "min",
    "Reported Measurement": 17
  },
  {
    "Compound": "O=C(Nc1ccc2sc(-c3cccc(F)c3)nc2c1)N1CCCCC1",
    "Unit Of Measure": "min",
    "Reported Measurement": 11
  },
  {
    "Compound": "COc1ccc2c(c1)[C@]13CCCC[C@@H]1[C@H](C2)N(C)CC3 [DEXTROMETHORPHAN]",
    "Unit Of Measure": "min",
    "Reported Measurement": 7.79
  }
]

# evaluate next
Ask: Supply t1/2 value. Item: O=C(Nc1ccc2oc(-c3ccccc3)nc2c1)N1CCCCC1
Result: 11

---

# Method: AUC (0 to infinity) in mouse brain at 50 mg/kg, po administered as single dose via gavage by liquid chromatography/tandem mass spectrometric analysis
# Assay type: ADME, organism-based
# Design: dose 50 mg/kg, time infinity, route oral
Reported Endpoint: AUC(0-inf)

Ask: Query AUC(0-inf) for O=C(Nc1ccc2sc(-c3ccc(F)c(F)c3)nc2c1)N1CC[C@H](F)C1
Result: 719 µM·h

---

# Test system: Plasma
# Method: Drug level in Swiss-Webster mouse plasma infected with Trypanosoma brucei rhodesiense STIB900 at 50 mg/kg, po bid administered via gavage for 4 days starting from 2 days post infection measured on day 3 prior to dose 7
# Format: ADME, organism-based
# Condition Details: in vivo
Reported Endpoint: concentration (µM)
Expressed in µM, but write only the number.

Ask: Please report the measured concentration for O=C(Nc1ccc2sc(-c3ccc(F)c(F)c3)nc2c1)N1CC[C@H](F)C1
Result: 9.1

---

# Method: Stability in mouse liver microsomes assessed as compound remaining at 1.5 uM in presence of NADPH measured after 5 mins by liquid chromatography/tandem mass spectrometric analysis
# Type: ADME, microsome
# Condition Details: read-out: Stability
Reported Endpoint: remaining at 5 min, 1.5 µM (%)
Numeric only. Scale: %

Some compounds with recorded remaining at 5 min, 1.5 µM:
[
  {
    "Compound": "CC1CCCCN1C(=O)NCCc1nc(-c2cccc(F)c2)cs1 (stereo unspecified)",
    "Reported Measurement": 21
  },
  {
    "Compound": "O=C(NCCc1nc(-c2cccc(F)c2)cs1)N1CCC(F)CC1",
    "Reported Measurement": 5.5
  },
  {
    "Compound": "O=C(NCCc1nc(-c2ccc(F)c(F)c2)cs1)N1CCCCC1",
    "Reported Measurement": 0
  },
  {
    "Compound": "CC(C)(CNC(=O)N1CCCCC1)c1nc(-c2ccccc2)cs1",
    "Reported Measurement": 0
  },
  {
    "Compound": "O=C(NCCc1nc(-c2cccc(F)c2)cs1)N1CCCC(F)(F)C1",
    "Reported Measurement": 14
  }
]

Ask: Entry CC(C)(Cc1csc(-c2ccccc2)n1)NC(=O)N1CCCCC1 needs its remaining at 5 min, 1.5 µM filled in; supply it.
Result: 0

Ask: Please give the documented remaining at 5 min, 1.5 µM of O=C(NCCc1nc(-c2ccc(F)cc2F)cs1)N1CCCCC1
Result: 0

Ask: Using the record for Cl.S=C(NCCc1nc(-c2ccccc2)cs1)N1CCCCC1 , state its measured remaining at 5 min, 1.5 µM.
Result: 1.8

Ask: Please supply the value of reported remaining at 5 min, 1.5 µM for the item S=C(NCCc1nc(-c2ccccc2)cs1)c1ccccc1
Result: 0

Ask: Provide measured remaining at 5 min, 1.5 µM value, entry: O=C(NCCc1nc(-c2cccc(F)c2)cs1)N1CCCC(F)C1 (stereo unspecified)
Result: 18

Ask: Given the compound O=C(NCCc1nc(-c2cccc(F)c2)cs1)N1CCC(F)(F)CC1 , write its reported remaining at 5 min, 1.5 µM.
Result: 20

---

# Method: Ratio of drug level in brain to plasma in mouse at 5 mg/kg, ip administered as single dose measured at 1 hr post dose by liquid chromatography/tandem mass spectrometric analysis
# Assay type: ADME, organism-based
Values of BPR greater than or equal to 2 map to criterion met; values below map to criterion not met.

[
  {
    "Molecule": "Cl.S=C(NCCc1nc(-c2ccccc2)cs1)N1CCCCC1",
    "Answer Label": "criterion not met"
  },
  {
    "Molecule": "O=C(Nc1ccc2sc(-c3ccc(F)c(F)c3)nc2c1)N1CCC(F)(F)C1",
    "Answer Label": "criterion met"
  }
]

For the next question, use this molecule.
Ask: # bool: BPR of O=C(Nc1ccc2sc(-c3ccc(F)c(F)c3)nc2c1)N1C[C@@H](F)[C@H](F)C1 >= 2
Result: criterion met
